# Tested on: 60 different human tumor cell lines
# conditionSummary: read-out: LC50; SK-MEL-28 (Melanoma), five dose
readoutLabel: CC50 (µM)
Kindly provide the numeric value in µM only, without the unit symbol.

Entry `C[C@]12CCc3nc(N)sc3C1=CC[C@@H]1[C@@H]2CC[C@]2(C)C(=NNC(N)=O)CC[C@@H]12` ; CC50 = 5.88

----------
# Test system: 60 different human tumor cell lines
# conditionSummary: read-out: LC50; NCI-H23 (Non-small Cell Lung Cancer), five dose
readoutLabel: CC50 (µM)
Kindly provide the numeric value in µM only, without the unit symbol.

Entry C[C@]12CCc3nc(N)sc3C1=CC[C@@H]1[C@@H]2CC[C@]2(C)C(=NNC(N)=O)CC[C@@H]12 [IVb.1] ; CC50 = 6.21

----------
CC50 overview
# Test system: 60 different human tumor cell lines
# conditionSummary: read-out: LC50; NCI-H522 (Non-small Cell Lung Cancer), five dose
Kindly provide the numeric value in µM only, without the unit symbol.

C[C@]12CCc3nc(N)sc3C1=CC[C@@H]1[C@@H]2CC[C@]2(C)C(=NNC(N)=O)CC[C@@H]12
8.55

Now look at this entry.
Entry `C[C@]12CCc3nc(Nc4ccc(O)cc4)sc3C1=CC[C@@H]1[C@@H]2CC[C@]2(C)C(=O)CC[C@@H]12` ; CC50 = 6.18

----------
CC50 overview
# System: 60 different human tumor cell lines
# assayProtocol: cells
# conditionSummary: MDA-MB-435, read-out: LC50

Sample records with CC50:
C[C@]12CCc3sc(Nc4ccc(F)cc4F)nc3C1=CC[C@@H]1[C@@H]2CC[C@]2(C)C(=O)CC[C@@H]12
> 100 µM
C[C@]12CCc3sc(Nc4cccc(O)c4)nc3C1=CC[C@@H]1[C@@H]2CC[C@]2(C)C(=O)CC[C@@H]12
> 100 µM
C[C@]12CCc3sc(NCCc4ccccc4)nc3C1=CC[C@@H]1[C@@H]2CC[C@]2(C)C(=O)CC[C@@H]12
> 100 µM
C[C@]12CC[C@H]3[C@@H](CC=C4c5sc(Nc6ccccc6)nc5CC[C@@]43C)[C@@H]1CC[C@@H]2O
29.7 µM

Now look at this entry.
Note to self: CC50 of `C[C@]12CC[C@H]3[C@@H](CC=C4c5sc(-c6ccc(O)cc6)nc5CC[C@@]43C)[C@@H]1CC[C@@H]2O` with 60 different human tumor cell lines was > 100 µM

----------
# Test system: RPMI-8226
# assayProtocol: NCI 60 five dose screen
# conditionSummary: Homo sapiens, RPMI-8226
readoutLabel: GI50 (nM)
Kindly provide the numeric value in nM only, without the unit symbol.

Sample records with GI50:
C[C@]12CCc3sc(NCCc4ccccc4)nc3C1=CC[C@@H]1[C@@H]2CC[C@]2(C)C(=O)CC[C@@H]12
1790
C[C@]12CC[C@H]3[C@@H](CC=C4c5sc(Nc6ccccc6)nc5CC[C@@]43C)[C@@H]1CC[C@@H]2O
465
C[C@]12CCc3sc(Nc4cccc(O)c4)nc3C1=CC[C@@H]1[C@@H]2CC[C@]2(C)C(=O)CC[C@@H]12
2730

Note to self: GI50 of `C[C@]12CCc3sc(Nc4ccc(F)cc4F)nc3C1=CC[C@@H]1[C@@H]2CC[C@]2(C)C(=O)CC[C@@H]12` with RPMI-8226 was 1880

Note to self: GI50 of `C[C@]12CCc3sc(Nc4ccc(OC(F)(F)F)cc4)nc3C1=CC[C@@H]1[C@@H]2CC[C@]2(C)C(=O)CC[C@@H]12` with RPMI-8226 was 1020
